tested on: HCT-15 colon; test: NCI tumour cell line growth inhibition, 48 h; in the data active means GI50 below about 0.43 µM; inactive means the rest
The reply should be one of these categories: active, inactive

Some entries whose results are on file:
# chemicalString, assignedClass
records = [
    ("Cc1cc(C(=O)NC(C)(C)C)cc(C#Cc2ccc3c4c(oc3c2)C(C)(C)c2cc(NS(C)(=O)=O)ccc2C4=O)n1", "inactive"),
    ("COc1ccc(C(=O)n2nc(/C=C/c3ccc(O)c(OC)c3)cc2/C=C/c2ccc(O)c(OC)c2)cc1", "active"),
    ("CCCN1C(=O)/C(=C/c2cccc(O)c2)SC1=Nc1ccccc1", "inactive"),
]

Attention now turns to another entry.
Query: Hi team, can someone confirm the assay call for Clc1ccc(N2CCN(CCCN3CCN(c4cccc(Cl)c4)CC3)CC2)cc1 ?
Response: inactive
